- TARGET: 5-hydroxytryptamine receptor 1A (Rattus norvegicus, UniProt P19327)
- Sequence (P19327 whole entry): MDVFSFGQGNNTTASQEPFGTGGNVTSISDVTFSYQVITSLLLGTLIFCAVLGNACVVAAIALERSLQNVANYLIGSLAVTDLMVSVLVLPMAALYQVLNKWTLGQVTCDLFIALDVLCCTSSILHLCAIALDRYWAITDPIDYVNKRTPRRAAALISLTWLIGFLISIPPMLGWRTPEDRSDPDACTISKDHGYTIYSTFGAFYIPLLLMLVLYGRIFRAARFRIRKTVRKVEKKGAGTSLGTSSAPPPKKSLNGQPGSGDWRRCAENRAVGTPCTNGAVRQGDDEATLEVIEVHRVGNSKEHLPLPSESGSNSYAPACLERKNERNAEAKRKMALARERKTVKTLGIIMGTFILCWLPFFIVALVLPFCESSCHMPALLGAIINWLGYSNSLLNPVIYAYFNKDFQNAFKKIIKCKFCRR

[
  {
    "MOLECULE": "CC(=O)Nc1cccc(N2CCN(CCCCNS(=O)(=O)CC3CCCCC3)CC2)c1 [NALUZOTAN]",
    "OUTPUT_UNIT": "nM",
    "Ki": 17
  }
]

---

- PROTOCOL_DESCRIPTION: Binding affinity to vasoactive intestinal peptide receptor by radioligand binding assay
ATTRIBUTE_MEASURED: Ki

[
  {
    "COMPOUND": "CC(=O)Nc1cccc(N2CCN(CCCCNS(=O)(=O)CC3CCCCC3)CC2)c1 [NALUZOTAN]",
    "ATTRIBUTE_MEASURED": "Ki",
    "TEST_VALUE": "> 2000 nM"
  }
]

---

- PROTOCOL_DESCRIPTION: Toxicity in po dosed Beagle dog
- Format: organism-based, Canis lupus familiaris
- RUN_PARAMETERS: in vivo

[
  {
    "COMPOUND": "CC(=O)Nc1cccc(N2CCN(CCCCNS(=O)(=O)CC3CCCCC3)CC2)c1 [NALUZOTAN]",
    "MTD [mg/kg]": 600
  }
]

---

- TARGET: Voltage-gated inwardly rectifying potassium channel KCNH2 (Homo sapiens, UniProt Q12809)
- Sequence (Q12809 whole entry): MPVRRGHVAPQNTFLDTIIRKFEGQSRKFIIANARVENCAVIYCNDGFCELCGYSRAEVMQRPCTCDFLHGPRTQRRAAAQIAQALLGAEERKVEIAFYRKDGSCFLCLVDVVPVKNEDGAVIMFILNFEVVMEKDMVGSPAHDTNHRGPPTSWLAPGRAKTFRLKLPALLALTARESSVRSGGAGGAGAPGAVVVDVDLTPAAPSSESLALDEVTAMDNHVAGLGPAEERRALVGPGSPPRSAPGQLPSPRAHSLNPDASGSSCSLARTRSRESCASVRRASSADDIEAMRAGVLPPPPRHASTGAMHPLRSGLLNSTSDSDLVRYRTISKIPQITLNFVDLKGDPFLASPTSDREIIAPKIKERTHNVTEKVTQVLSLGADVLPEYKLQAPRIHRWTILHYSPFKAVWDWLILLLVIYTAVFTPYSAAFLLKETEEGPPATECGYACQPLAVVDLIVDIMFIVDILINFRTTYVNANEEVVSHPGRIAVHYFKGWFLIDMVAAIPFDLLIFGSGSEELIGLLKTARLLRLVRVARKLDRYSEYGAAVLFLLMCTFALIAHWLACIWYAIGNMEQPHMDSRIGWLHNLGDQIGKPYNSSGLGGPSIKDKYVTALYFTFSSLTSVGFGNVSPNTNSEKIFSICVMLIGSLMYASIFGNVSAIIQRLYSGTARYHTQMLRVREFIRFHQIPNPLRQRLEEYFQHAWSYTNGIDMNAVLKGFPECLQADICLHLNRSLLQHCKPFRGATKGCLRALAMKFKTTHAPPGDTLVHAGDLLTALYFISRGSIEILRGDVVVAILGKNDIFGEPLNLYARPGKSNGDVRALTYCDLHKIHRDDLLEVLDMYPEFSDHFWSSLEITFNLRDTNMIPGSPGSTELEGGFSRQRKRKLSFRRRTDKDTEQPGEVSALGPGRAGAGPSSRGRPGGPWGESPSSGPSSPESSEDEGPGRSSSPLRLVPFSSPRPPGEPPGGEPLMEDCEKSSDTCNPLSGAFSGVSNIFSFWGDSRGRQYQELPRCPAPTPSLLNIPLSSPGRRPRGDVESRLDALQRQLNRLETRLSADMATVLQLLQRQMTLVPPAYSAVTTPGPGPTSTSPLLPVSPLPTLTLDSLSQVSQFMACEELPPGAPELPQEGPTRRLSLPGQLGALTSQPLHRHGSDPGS
ATTRIBUTE_MEASURED: Ki

[
  {
    "COMPOUND": "CC(=O)Nc1cccc(N2CCN(CCCCNS(=O)(=O)CC3CCCCC3)CC2)c1 [NALUZOTAN]",
    "ATTRIBUTE_MEASURED": "Ki",
    "TEST_VALUE": "> 2 µM"
  }
]

---

- TARGET: Voltage-gated inwardly rectifying potassium channel KCNH2 (Homo sapiens)
- PROTOCOL_DESCRIPTION: Inhibition of hERG potassium channel in HEK293 cells by patch clamp assay
pIC50: −log10 of the molar value.
List of pIC50 values.

[
  {
    "SMILES_CODE": "CC(=O)Nc1cccc(N2CCN(CCCCNS(=O)(=O)CC3CCCCC3)CC2)c1",
    "TARGET": "Voltage-gated inwardly rectifying potassium channel KCNH2 (Homo sapiens)",
    "pIC50": 5.42
  },
  {
    "SMILES_CODE": "CC(=O)Nc1cccc(N2CCN(CCCCN(C)S(=O)(=O)CC(C)C)CC2)c1",
    "TARGET": "Voltage-gated inwardly rectifying potassium channel KCNH2 (Homo sapiens)",
    "pIC50": 5.66
  }
]
